- Tested on: RPMI-8226 leukemia
- assay.protocol: NCI tumour cell line growth inhibition, 48 h
metric.name: TGI

O=c1c2ccccc2nc2n1C(c1ccc([N+](=O)[O-])cc1)C2(c1ccccc1)c1ccccc1 (centres undefined) = > 100 µM
Clc1cc2c(nn1)Nc1ccccc1S2 = > 100 µM
O=C(COc1ccc(OCC(=O)NNC2=NC(c3cc(F)c(Cl)cc3Cl)CS2)c(Cl)c1)NNC1=NC(c2cc(F)c(Cl)cc2Cl)CS1 (centres undefined) = > 100 µM
Cc1cc(=O)n2c3c(c4c(cc13)c(CO)cc(=O)n4C)OC2 = > 100 µM
O=C1C(=O)c2ccccc2C(O)=C1CCCc1ccc(C2CCCC2)cc1 = 6.94 µM
CC1=NN2C(c3ccc(C)cc3)=CSC2=NC(C)(C)C1 = > 100 µM

Hi team, please reply with TGI for each item in this list.
1. CCN1C(=O)/C(=C2\SC(c3ccccc3)(c3ccccc3)c3ccccc32)SC1=S
2. CCCCCCCCCCC/C=C\C[C@H](O)C/C=C1/C(=O)C=C[C@@H]1C/C=C\CCCC(=O)OC
3. CSc1nc2c(nc(N)n2C2OC(COC(C)=O)C(OC(C)=O)C(OC(C)=O)C2OC(C)=O)c(=O)n1C (centres undefined)

1: > 100 µM; 2: 1.62 µM; 3: > 100 µM

Where do these numbers come from? They come from PubChem BioAssay (NCI).
